Target: T1, murine neutrophil elastase (mNE) (mouse, UniProt Q3UP87 27-265)
T1 sequence (looked up): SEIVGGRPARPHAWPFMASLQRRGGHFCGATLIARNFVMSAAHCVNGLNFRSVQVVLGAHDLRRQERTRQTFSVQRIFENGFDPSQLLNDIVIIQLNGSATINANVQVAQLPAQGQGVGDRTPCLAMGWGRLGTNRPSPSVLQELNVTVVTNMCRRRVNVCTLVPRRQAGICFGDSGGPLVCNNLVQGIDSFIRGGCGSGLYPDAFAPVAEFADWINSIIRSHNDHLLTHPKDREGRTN
Assay: SPR
Measurement label: Kd
Output should be the measured figure followed by the unit it is expressed in.

INPUT: Which measured Kd value corresponds to CGEAIPMSIPPEVK [NE-binding peptide (NEBP)] ?
OUTPUT: 1.6 nM

# credit: paper PMC9909445
